These entries and their values trace back to patent US6841682B2.

Test system: rat prostatic tissue
Test: norepinephrine-induced contractile response of rat prostatic tissue
Type: cell-based
Settings: rat prostate strips, 32° C., pH 7.4, read-out: IC50, inhibition of contractile response in prostate tissue
pIC50: −log10 of the molar value.
Experimental endpoint: pIC50

a = CC(C)Oc1ccccc1N1CCN(Cc2cc(CN3CCCCC3=O)n[nH]2)CC1 [Compound 3]
b = CC(C)Oc1ccccc1N1CCN(Cc2ncc(CN3CCCCC3=O)s2)CC1 [Compound 16]
Could you determine which record has the numerically smaller pIC50? Candidates: a and b I would appreciate it if you answered with the label of your choice.
a

###

Biological target: α1a-AR (Homo sapiens)
Construct: expressed in transfected cells; host or cells: COS cells (pcDNA3 vector, DEAE-dextran transient transfection); membrane preparation
Sequence (P35348 whole entry): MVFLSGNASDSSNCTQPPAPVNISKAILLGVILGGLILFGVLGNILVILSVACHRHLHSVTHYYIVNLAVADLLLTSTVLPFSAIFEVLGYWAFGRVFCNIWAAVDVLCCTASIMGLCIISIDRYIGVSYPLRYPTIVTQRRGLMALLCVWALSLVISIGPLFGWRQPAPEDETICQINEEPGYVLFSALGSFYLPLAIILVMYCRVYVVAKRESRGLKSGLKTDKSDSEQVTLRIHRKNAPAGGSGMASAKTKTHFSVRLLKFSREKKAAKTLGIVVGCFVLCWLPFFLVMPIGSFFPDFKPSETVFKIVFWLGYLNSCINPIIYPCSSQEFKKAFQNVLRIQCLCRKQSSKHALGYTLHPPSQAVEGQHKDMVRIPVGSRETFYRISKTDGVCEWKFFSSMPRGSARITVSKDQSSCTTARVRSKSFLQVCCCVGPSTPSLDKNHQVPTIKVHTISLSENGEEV
Experiment: radioligand ([125I]-HEAT) receptor binding assay, COS cell membranes, α1a-AR
Settings: Tables A-J; [125I]-HEAT 50 pM, COS membranes; read-out: α1a IC50
Procedure: The first assay tested the ability of compounds of Formula I to bind to membrane bound receptors α1a-AR, α1b-AR and α1d-AR. The DNA sequences of the three cloned human α1-AR subtypes have been published. […] The three α1-AR subtypes (a, b, d) were transfected into COS cells using a standard DEAE-dextran procedure with a chloroquine shock. […] The protein concentration was determined following membrane solubilization with TritonX-100. […]
Experimental endpoint: IC50 (µM)

These recorded examples may help you get a feel for the data.
| Molecule | Readout unit | IC50 |
| --- | --- | --- |
| CC(C)Oc1ccccc1N1CCN(Cc2ncc(CN3CCCCC3=O)s2)CC1 | µM | 0.00188 |
| CC(C)Oc1ccccc1N1CCN(Cc2cc(CN3CCCCC3=O)cs2)CC1 | µM | 0.001 |
| CC(C)Oc1ccccc1N1CCN(Cc2nc(CN3CCCCC3=O)co2)CC1 | µM | 4.64 |
| O=C1CCCCCN1Cc1cc(CN2CCN(c3ccccc3Oc3ccccc3)CC2)on1 | µM | 0.172 |
| CC(C)Oc1ccccc1N1CCN(Cc2cc(CN3CCCC3=O)cs2)CC1 | µM | 0.00083 |

a = CC(C)Oc1ccccc1N1CCN(Cc2cccc(CN3C(=O)CCCC3c3ccccc3)n2)CC1 (centres unmarked)
b = CC(C)Oc1ccccc1N1CCN(CC2=NOC(CN3CCCCC3=O)C2)CC1 (centres unmarked)
c = COc1ccccc1N1CCN(Cc2ccc(CN3CCCCCC3=O)s2)CC1
Reorder the items by IC50, least to greatest. Answer by naming the labels in the order asked.
c, b, a

a = CC(C)Oc1ccccc1N1CCN(Cc2cc(CN3CCCCC3=O)on2)CC1
b = CC(C)Oc1ccccc1N1CCN(Cc2cc(CN3CCCC3=O)no2)CC1
c = COc1ccccc1N1CCN(Cc2cccc(CN3CCCCCCC3=O)n2)CC1
Thanks in advance: please rank these 3 entries by IC50, highest to lowest. Reply with the labels, ordered as the question asks.
c, a, b
(c: 2.03 µM, a: 0.0038 µM, b: 0.0022 µM)
